Molecular target: Inhibitor of nuclear factor kappa-B kinase subunit epsilon (Homo sapiens);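 further: reported values are averaged percent inhibition figures against human IKKε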
Sequence (whole entry): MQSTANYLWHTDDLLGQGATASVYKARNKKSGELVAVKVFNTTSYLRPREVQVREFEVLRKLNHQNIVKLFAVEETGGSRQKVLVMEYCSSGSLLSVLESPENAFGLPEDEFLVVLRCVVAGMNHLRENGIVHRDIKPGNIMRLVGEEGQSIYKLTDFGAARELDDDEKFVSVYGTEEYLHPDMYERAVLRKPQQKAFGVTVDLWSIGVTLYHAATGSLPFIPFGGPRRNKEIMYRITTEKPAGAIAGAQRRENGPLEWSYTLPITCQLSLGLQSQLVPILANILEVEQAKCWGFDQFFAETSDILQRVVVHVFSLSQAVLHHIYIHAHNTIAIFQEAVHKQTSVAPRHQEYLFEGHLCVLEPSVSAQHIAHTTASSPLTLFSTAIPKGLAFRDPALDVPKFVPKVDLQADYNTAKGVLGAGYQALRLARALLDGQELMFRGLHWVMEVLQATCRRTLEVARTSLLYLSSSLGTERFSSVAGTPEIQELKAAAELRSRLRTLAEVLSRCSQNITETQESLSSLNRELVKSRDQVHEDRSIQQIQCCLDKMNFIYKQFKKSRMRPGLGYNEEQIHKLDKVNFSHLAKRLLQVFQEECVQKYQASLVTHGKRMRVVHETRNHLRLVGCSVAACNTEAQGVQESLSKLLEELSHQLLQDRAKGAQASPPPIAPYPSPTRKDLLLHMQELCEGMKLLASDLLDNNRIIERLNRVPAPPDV
Conditions: at 1 µM
reportedMetric: inhibition (%)
Hi! Could you send only the number? It should be in %, unit omitted.

Task: Return the recorded inhibition value; entry: `Nc1nccc(-c2c(-c3ccc(F)cc3)ncn2CCCN2CCOCC2)n1`
Output: 5.9

Task: Write down inhibition measured for item `FC(F)(F)c1ccc(-c2nn3ncccc3c2-c2ccnc(Nc3ccc4c(c3)OCCO4)n2)cc1`
Output: -1.52

Task: Answer with the recorded inhibition of `CN(C)CCCn1c(-c2nonc2N)nc2cnccc21` only.
Output: 4.6

Task: Return inhibition (reported value) for this compound: `COc1cc(Nc2nccc(-c3cnn4ncccc34)n2)cc(OC)c1`
Output: 28.2

Task: Give reported inhibition value for `ON=C1CCc2cc(-c3nc(C4CCNCC4)[nH]c3-c3ccncc3)ccc21`
Output: 2.68

Task: Provide inhibition value for the following compound: `CS(=O)(=O)CCNCc1nc(-c2ccc3ncnc(Nc4ccc(OCc5cccc(C(F)(F)F)c5)cc4)c3c2)cs1`
Output: 2.82

Task: Provide inhibition value for the following compound: `CN1CCN(C(=O)c2ccc(NC(=O)Nc3ccc(N(C)c4ccnc(Nc5ccc(CS(C)(=O)=O)cc5)n4)cc3)cc2)CC1`
Output: 14.2

Task: Hello, please tell me recorded inhibition for this one: `Nc1nccc(-c2c(-c3ccc(F)cc3)nn3cc(C(F)(F)F)ccc23)n1`
Output: 0.39

Task: Find the measured inhibition of `Cc1ccc2c(-c3ccnc(Nc4ccc5c(c4)OCCO5)n3)c(-c3ccc(C(F)(F)F)cc3)nn2n1` and report it.
Output: -0.03

* * *

Target: Serine/threonine-protein kinase B-raf (Homo sapiens) (UniProt P15056);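 further: reported value is the mean percent inhibition of BRAF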
Sequence (P15056 whole entry): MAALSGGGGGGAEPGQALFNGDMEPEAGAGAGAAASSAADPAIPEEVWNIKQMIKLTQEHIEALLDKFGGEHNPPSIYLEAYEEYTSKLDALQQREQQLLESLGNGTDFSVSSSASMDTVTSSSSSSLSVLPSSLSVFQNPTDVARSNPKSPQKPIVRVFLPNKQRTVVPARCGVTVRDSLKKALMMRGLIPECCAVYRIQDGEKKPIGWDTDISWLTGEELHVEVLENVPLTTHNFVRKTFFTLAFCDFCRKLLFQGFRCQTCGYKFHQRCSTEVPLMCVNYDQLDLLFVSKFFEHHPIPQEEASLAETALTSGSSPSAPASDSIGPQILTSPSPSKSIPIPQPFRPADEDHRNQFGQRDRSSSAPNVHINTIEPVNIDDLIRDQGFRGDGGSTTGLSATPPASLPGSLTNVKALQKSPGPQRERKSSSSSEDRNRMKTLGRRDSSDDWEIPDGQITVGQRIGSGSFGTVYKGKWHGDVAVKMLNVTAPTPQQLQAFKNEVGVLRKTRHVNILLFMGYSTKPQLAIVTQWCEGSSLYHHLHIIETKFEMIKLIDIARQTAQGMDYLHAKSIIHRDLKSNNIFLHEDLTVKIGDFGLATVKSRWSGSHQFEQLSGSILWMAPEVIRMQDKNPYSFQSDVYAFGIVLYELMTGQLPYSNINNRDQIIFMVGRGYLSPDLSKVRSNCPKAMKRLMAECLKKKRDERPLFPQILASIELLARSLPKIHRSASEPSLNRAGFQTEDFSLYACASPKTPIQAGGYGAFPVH
Details: at 1 µM
Would you kindly list inhibition for each of these compounds?

Task: Provide only the value of recorded inhibition for `CCS(=O)(=O)c1ccc(OC)c(Nc2ncc(-c3cccc(OC)c3)o2)c1`
Output: 5.54%

Task: Give inhibition for the following compound: `Nc1nccc(-c2c(-c3ccc(F)cc3)nn3cc(C(F)(F)F)ccc23)n1`
Output: 0.3%

Task: Give the reported value of inhibition for this record: `Oc1cccc(-c2nc(-c3ccccc3)[nH]c2-c2ccncc2)c1`
Output: 30%

Task: Give inhibition for `Cc1cc(O)cc(C)c1/C=C/c1cncc(C(=O)N(C)C)c1`
Output: 3.56%

Task: Answer with the recorded inhibition of `Cc1cc(-c2ccccn2)cc(C)c1/C=C/c1cncc(-c2nn[nH]n2)c1` only.
Output: 12.4%

Task: For the compound `COC(=O)c1cncc(/C=C/c2c(C)cc(O)cc2C)c1` , give its reported inhibition.
Output: 9.71%

Task: Please indicate inhibition recorded for `Nc1nccc(C#Cc2cncnc2Nc2ccc(OCc3cccc(F)c3)c(Cl)c2)n1`
Output: 6.72%

Task: Complete the entry with inhibition for `CS(=O)(=O)CCNCc1nc(-c2ccc3ncnc(Nc4ccc(OCc5cccc(C(F)(F)F)c5)cc4)c3c2)cs1`
Output: 2.12%

Task: Specify measured inhibition for `CC(C)c1ccc2c(c1)NC(=O)/C2=N/Nc1ccc(S(N)(=O)=O)cc1` .
Output: -1.25%

Task: State its inhibition for this compound: `O=C1Nc2ccc(-c3cccnc3)cc2C1=Cc1cc(Br)c(O)c(Br)c1`
Output: 18.3%

* * *

Biological target: Protein kinase C beta type (Homo sapiens) (UniProt P05771);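 further: GSK PKIS screen, average inhibition of the PKC-beta2 splice variant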
Sequence (P05771 2-671 limits assumed): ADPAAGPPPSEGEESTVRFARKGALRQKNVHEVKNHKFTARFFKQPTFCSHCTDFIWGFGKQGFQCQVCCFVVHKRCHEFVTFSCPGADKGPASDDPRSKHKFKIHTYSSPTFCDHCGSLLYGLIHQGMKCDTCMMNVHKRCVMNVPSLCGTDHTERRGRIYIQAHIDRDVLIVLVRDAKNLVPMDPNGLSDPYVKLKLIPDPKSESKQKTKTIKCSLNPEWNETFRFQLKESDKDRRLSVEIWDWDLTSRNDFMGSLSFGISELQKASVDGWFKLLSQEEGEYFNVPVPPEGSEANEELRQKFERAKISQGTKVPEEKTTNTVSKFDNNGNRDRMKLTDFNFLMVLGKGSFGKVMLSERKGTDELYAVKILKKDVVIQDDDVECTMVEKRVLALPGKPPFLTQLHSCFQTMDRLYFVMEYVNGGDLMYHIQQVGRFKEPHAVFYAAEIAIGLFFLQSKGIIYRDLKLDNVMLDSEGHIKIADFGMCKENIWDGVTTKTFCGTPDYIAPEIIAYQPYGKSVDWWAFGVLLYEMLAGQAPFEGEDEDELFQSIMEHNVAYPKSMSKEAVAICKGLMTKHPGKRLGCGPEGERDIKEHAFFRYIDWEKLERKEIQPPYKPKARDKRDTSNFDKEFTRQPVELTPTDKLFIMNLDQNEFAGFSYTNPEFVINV
Settings: at 1 µM
Description: GSK_PKIS: PKC-beta2 (splice variant) mean inhibition at 1 uM [Nanosyn]
reportedMetric: inhibition (%)
Return type: number; implicit unit %.

Task: Read the entry `Nc1nccc(C#Cc2cncnc2Nc2ccc(OCc3cccc(F)c3)c(Cl)c2)n1` and write its reported inhibition.
Output: 1.49

Task: Identify measured inhibition associated with `CS(=O)(=O)CCNCc1nc(-c2ccc3ncnc(Nc4ccc(OCc5cccc(C(F)(F)F)c5)cc4)c3c2)cs1`
Output: 1.98

Task: Entry `COc1ccc(-c2nn3ncccc3c2-c2ccnc(Nc3cccc(C(F)(F)F)c3)n2)cc1` needs its inhibition filled in; supply it.
Output: 2.07

Task: Complete the entry with inhibition for `Nc1ccc(C#Cc2cncnc2Nc2ccc(OCc3cccc(F)c3)c(Cl)c2)cc1`
Output: 0.6

Task: Identify inhibition associated with the compound `N#Cc1c(NC(=O)c2ccccc2F)sc2c1CCCC2`
Output: 0.43

Task: Item `c1ccc(Nc2ncc(-c3ccccc3)o2)cc1` : provide inhibition
Output: 2.63

Task: Quick one: give measured inhibition for `CCS(=O)(=O)c1ccc(OC)c(Nc2ncc(-c3cccc(OC)c3)o2)c1`
Output: 2.93

Task: Give reported inhibition value for `CCn1c(-c2nonc2N)nc2ccc(F)cc21`
Output: 4.26

Task: Let me know recorded inhibition for `O=S(=O)(CCOCc1ccc(-c2ccc3ncnc(Nc4ccc(OCc5cccc(F)c5)c(Cl)c4)c3c2)o1)c1ccccc1` , thanks.
Output: 1.53

* * *

Target: Fibroblast growth factor receptor 4 (Homo sapiens);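 further: reported figure is the averaged percent inhibition of FGFR4, from the GSK PKIS kinase screening panel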
Details: at 1 µM
reportedMetric: inhibition (%)
All answers are understood in %, so give the number only.

Task: Give the reported value of inhibition for this record: `CN(C)c1cc2c(Nc3ccc4c(cnn4Cc4ccccc4)c3)ncnc2cn1`
Output: 7.89

Task: Return inhibition (reported value) for this compound: `CC(C)c1ccc(Nc2nccc(-c3cnn4ncccc34)n2)cc1`
Output: 3.28

Task: Answer with reported inhibition of `COc1cc2ncnc(Nc3ccc4c(cnn4Cc4ccccc4)c3)c2cc1OC`
Output: -0.35

Task: Note down inhibition recorded for `C[C@@H](Oc1cc(-n2cnc3ccc(OCC4CCN(C)CC4)cc32)sc1C(N)=O)c1ccccc1C(F)(F)F`
Output: -0.61

Task: Check the records and state inhibition for `NS(=O)(=O)c1ccc(Nc2cc(-c3cccc(O)c3)n[nH]2)cc1`
Output: 4.03

Task: Give the value of inhibition reported for the following: `Cc1ccc(NC(=O)CC2CC2)cc1-c1ccc(C(=O)NCC2CC2)cc1`
Output: 1.67

Task: Write down inhibition measured for item `Nc1nccc(-c2c(-c3ccc(F)cc3)nn3cc(C(F)(F)F)ccc23)n1`
Output: 0.14

Task: Fill in reported inhibition for this entry: `NS(=O)(=O)c1cccc(Nc2cc(-c3ccc(F)cc3)n[nH]2)c1`
Output: 2.4

Task: Dear colleague, please send me the reported inhibition for `O=C(Nc1ccc(Oc2ccc3[nH]c(NC(=O)c4ccco4)nc3c2)cc1)Nc1cc(C(F)(F)F)ccc1F` when you can.
Output: -2.3

Task: Supply inhibition value. Item: `Cc1cc(-c2ccccn2)cc(C)c1/C=C/c1cncc(-c2nn[nH]n2)c1`
Output: -0.54

Task: Give a short answer stating reported inhibition for `COC(=O)Nc1nc2cc(Oc3ccc(NC(=O)Nc4cccc(Br)c4)cc3)ccc2[nH]1` .
Output: 2.05

Task: Determine from records and report inhibition for `N#Cc1cccc(Nc2nccc(-c3cnn4ncccc34)n2)c1`
Output: 5.22

* * *

Kindly state inhibition for each of the entries shown.
Target: Calcium/calmodulin-dependent protein kinase type II subunit delta (Homo sapiens) (UniProt Q13557);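 further: percent inhibition values are means, taken from the GSK PKIS kinase profiling set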
Sequence (Q13557 whole entry): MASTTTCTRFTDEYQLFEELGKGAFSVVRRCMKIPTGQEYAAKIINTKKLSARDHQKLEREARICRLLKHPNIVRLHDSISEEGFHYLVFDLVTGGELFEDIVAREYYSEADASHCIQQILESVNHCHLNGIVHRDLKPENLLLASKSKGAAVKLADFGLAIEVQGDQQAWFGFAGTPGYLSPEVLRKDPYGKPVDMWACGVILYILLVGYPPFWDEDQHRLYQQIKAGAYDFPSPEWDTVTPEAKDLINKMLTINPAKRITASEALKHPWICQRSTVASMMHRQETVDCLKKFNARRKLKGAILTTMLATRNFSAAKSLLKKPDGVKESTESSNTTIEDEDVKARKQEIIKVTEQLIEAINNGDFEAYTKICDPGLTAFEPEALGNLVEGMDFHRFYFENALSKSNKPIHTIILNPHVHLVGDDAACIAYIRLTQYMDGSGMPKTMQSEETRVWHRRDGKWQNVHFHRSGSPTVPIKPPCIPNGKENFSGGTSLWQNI
Conditions: at 0.1 µM

Task: Check the records and state inhibition for `COc1cc(Nc2nccc(-c3cnn4ncccc34)n2)cc(OC)c1`
Output: 6.12%

Task: Identify the reported inhibition for the following entry. `NS(=O)(=O)c1ccc(Nc2cc(-c3cccc(O)c3)n[nH]2)cc1`
Output: 5.13%

Task: Recall and state the measured inhibition for `NC(=O)c1cccc(Nc2nccc(Nc3cccc(F)c3)n2)c1` .
Output: 0.45%

Task: Determine from records and report inhibition for `Cc1cc(-c2ccccn2)cc(C)c1/C=C/c1cncc(-c2nn[nH]n2)c1`
Output: 2.75%

Task: Provide only the value of recorded inhibition for `C[C@@H](Oc1cc(-n2cnc3ccc(OC[C@@H](O)CO)cc32)sc1C(N)=O)c1ccccc1Cl`
Output: -0.89%

Task: Note down inhibition recorded for `C[C@@H](Oc1cc(-n2cnc3ccc(OCC4CCN(C)CC4)cc32)sc1C(N)=O)c1ccccc1C(F)(F)F`
Output: 6.59%

Task: Give the reported value of inhibition for this record: `NS(=O)(=O)c1ccc(-c2cc3ccncc3cc2OCc2ccccc2)cc1`
Output: 2.4%

Task: For the molecule `COC(=O)c1ccc2c(c1)C(=Cc1cc(Br)c(O)c(Br)c1)C(=O)N2` , give its reported inhibition.
Output: 3.29%

Task: Output measured inhibition for this item: `COc1cc2ncn(-c3cc(OCc4ccccc4S(C)(=O)=O)c(C#N)s3)c2cc1OC`
Output: 18.3%

Task: Fill in reported inhibition for this entry: `CC(C)c1ccc(Nc2nccc(-c3cnn4ncccc34)n2)cc1`
Output: 2.72%

Task: Fill in inhibition for record `Cc1cc(O)cc(C)c1/C=C/c1cncc(C(=O)N(C)C)c1`
Output: 3.56%

Task: Recall and state the measured inhibition for `NS(=O)(=O)c1cccc(-c2cc3ccncc3cc2OCc2ccccc2)c1` .
Output: 4.83%

Task: Annotate the molecule `Nc1nccc(-c2c(-c3ccc(F)cc3)nn3cc(C(F)(F)F)ccc23)n1` with its measured inhibition.
Output: 0.49%

Task: Retrieve inhibition measured for `Cc1ccc(NC(=O)CC2CC2)cc1-c1ccc(C(=O)NCC2CC2)cc1` and print it.
Output: 2.84%

Task: Name the recorded inhibition of the molecule listed here: `Cc1ccc2c(c1)/C(=N/Nc1ccc(S(N)(=O)=O)cc1)C(=O)N2`
Output: 1.2%

Task: State its inhibition: `CCS(=O)(=O)c1ccc(OC)c(Nc2nccc(N(C)c3ccc4c(C)n[nH]c4c3)n2)c1`
Output: 3.29%

Task: Fill in inhibition for record `CN(C)c1cc2c(Nc3ccc4c(cnn4Cc4ccccc4)c3)ncnc2cn1`
Output: 2.28%

Task: Using the record for `CN(C)CCCn1c(-c2nonc2N)nc2cnccc21` , state its measured inhibition.
Output: 3.33%

Task: Input `Nc1ccc(C#Cc2cncnc2Nc2ccc(OCc3cccc(F)c3)c(Cl)c2)cc1` , output reported inhibition.
Output: 0.73%

Task: Give the reported inhibition for this molecule. `[O-][S+]1CCN(Cc2ccc(-c3ccc4ncnc(Nc5ccc(OCc6ccccc6)c(Cl)c5)c4c3)o2)CC1`
Output: 0.81%

Task: Tell me inhibition reported for `c1ccc(Nc2ncc(-c3ccccc3)o2)cc1`
Output: 3.06%
